biological target: SIRT1 (Homo sapiens); construct: His-tag (N); made in house; host or cells: E. coli BL21(DE3), T7-promoter vector; test: Mass spectrometry based assay for modulators of SIRT1 activity (deacetylation of p53-based acetylated peptide); type: biochemical; conditions: percent maximum fold activation of SIRT1
Sequence (Q96EB6 whole entry): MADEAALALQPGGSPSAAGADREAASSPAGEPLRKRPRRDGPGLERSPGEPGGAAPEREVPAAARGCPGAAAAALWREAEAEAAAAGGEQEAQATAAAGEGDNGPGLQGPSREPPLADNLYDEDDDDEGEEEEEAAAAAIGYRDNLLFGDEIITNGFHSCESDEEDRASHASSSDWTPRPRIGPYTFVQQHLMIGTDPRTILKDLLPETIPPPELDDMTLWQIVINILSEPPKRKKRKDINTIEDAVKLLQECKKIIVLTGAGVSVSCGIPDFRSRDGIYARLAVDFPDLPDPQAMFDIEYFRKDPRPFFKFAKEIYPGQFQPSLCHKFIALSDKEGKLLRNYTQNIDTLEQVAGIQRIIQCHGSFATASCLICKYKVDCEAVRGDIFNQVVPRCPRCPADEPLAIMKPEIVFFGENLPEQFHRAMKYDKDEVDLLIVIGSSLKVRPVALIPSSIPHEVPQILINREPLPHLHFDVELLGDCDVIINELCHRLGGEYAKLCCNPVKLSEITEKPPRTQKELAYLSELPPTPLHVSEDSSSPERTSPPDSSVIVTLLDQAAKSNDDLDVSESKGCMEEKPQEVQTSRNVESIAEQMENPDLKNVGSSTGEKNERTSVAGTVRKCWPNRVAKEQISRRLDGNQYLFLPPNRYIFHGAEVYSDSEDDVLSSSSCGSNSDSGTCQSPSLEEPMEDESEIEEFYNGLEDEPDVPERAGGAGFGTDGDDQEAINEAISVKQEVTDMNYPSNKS
measured-metric: Emax

compound | Emax
O=C(Nc1cnccn1)c1cccn2cc(-c3ccccc3)nc12 [Compound 109] | < 200%
O=C(Nc1ccccn1)c1cccn2cc(-c3ccc(N4CCOCC4)cc3)nc12 [Compound 184] | < 200%
O=C(Nc1cccn2cc(-c3ccccc3)nc12)c1cscn1 [Compound 101] | < 200%

Query: Emax; subject: Cc1cc(-c2nc3c(C(=O)Nc4ccccn4)cccn3n2)ccn1 [Compound 215]
> 200%

// repeat for O=C(Nc1nccs1)c1cccn2cc(-c3cccc(C(F)(F)F)c3)nc12 [Compound 112] and report
< 200%
